molecular target: CHUK (IKK alpha) (Homo sapiens); construct: purchased Life Technologies (assay performed by the vendor); experiment: Adapta IKKα assay (TR-FRET ADP formation, Life Technologies); assay type: biochemical; conditions: Adapta assay (second line of an example)
Sequence (O15111 whole entry): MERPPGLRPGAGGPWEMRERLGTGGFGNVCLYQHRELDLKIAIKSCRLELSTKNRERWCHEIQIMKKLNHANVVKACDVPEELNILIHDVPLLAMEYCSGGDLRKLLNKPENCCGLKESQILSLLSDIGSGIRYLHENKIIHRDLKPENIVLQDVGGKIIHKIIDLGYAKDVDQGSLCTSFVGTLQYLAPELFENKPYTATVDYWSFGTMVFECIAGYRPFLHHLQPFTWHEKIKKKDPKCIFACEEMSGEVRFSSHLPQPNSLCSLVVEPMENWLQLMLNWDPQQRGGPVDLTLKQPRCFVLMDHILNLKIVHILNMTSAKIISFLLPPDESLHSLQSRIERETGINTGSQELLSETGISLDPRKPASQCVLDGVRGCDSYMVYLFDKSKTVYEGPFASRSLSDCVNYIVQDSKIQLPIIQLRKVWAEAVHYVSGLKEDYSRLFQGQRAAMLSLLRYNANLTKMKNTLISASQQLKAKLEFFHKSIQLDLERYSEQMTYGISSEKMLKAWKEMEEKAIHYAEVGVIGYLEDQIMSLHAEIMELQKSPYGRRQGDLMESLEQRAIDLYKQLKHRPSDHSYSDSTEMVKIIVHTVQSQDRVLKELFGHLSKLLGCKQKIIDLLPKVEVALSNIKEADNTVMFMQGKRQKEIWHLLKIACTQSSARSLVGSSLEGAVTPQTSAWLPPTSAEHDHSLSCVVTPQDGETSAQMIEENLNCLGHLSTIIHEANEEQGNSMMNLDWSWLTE
endpoint.label: IC50 (nM)
Quick reminder: number only, in nM, skip the unit.

Jot down IC50 (CHUK (IKK alpha) (Homo sapiens)) of Nc1n[nH]c2ccc(-c3ccnc4[nH]c(C5CCCCC5)cc34)cc12 [Example 219] .
14

Jot down IC50 (CHUK (IKK alpha) (Homo sapiens)) of Nc1n[nH]c2ccc(-c3ccnc4[nH]c(CN5CCCCC5)cc34)cc12 [Example 260] .
27

Jot down IC50 (CHUK (IKK alpha) (Homo sapiens)) of Nc1n[nH]c2ccc(-c3ccnc4[nH]c(C5CC5)cc34)cc12 [Example 218] .
1

Jot down IC50 (CHUK (IKK alpha) (Homo sapiens)) of Nc1n[nH]c2c(C#CC3CCCC3)cc(-c3ccnc4[nH]ccc34)cc12 [Example 203] .
16

Jot down IC50 (CHUK (IKK alpha) (Homo sapiens)) of Nc1n[nH]c2ccc(-c3ccnc4[nH]c(C(=O)NC5CCCCC5)cc34)cc12 [Example 236] .
2

Jot down IC50 (CHUK (IKK alpha) (Homo sapiens)) of Nc1n[nH]c2c(C#CCCCN3CCCCC3)cc(-c3ccnc4[nH]ccc34)cc12 [Example 212] .
12

Jot down IC50 (CHUK (IKK alpha) (Homo sapiens)) of Nc1n[nH]c2ccc(-c3ccnc4[nH]c(CO)cc34)cc12 [Example 224] .
1

Jot down IC50 (CHUK (IKK alpha) (Homo sapiens)) of Nc1n[nH]c2ccc(-c3ccnc4[nH]c(CN5CCCCCC5)cc34)cc12 [Example 265] .
13

Jot down IC50 (CHUK (IKK alpha) (Homo sapiens)) of Nc1n[nH]c2ccc(-c3ccnc4[nH]c(CCCN5CCOCC5)cc34)cc12 [Example 271] .
1

Jot down IC50 (CHUK (IKK alpha) (Homo sapiens)) of Nc1n[nH]c2ccc(-c3ccnc4[nH]c(CC5CCCCC5)cc34)cc12 [Example 221] .
8

Jot down IC50 (CHUK (IKK alpha) (Homo sapiens)) of Nc1n[nH]c2ccc(-c3ccnc4[nH]c(CCN5CCOCC5)cc34)cc12 [Example 268] .
1

Jot down IC50 (CHUK (IKK alpha) (Homo sapiens)) of Nc1n[nH]c2ccc(-c3ccnc4[nH]c(CCN5CCCCC5)cc34)cc12 [Example 267] .
8

Jot down IC50 (CHUK (IKK alpha) (Homo sapiens)) of Nc1n[nH]c2ccc(-c3ccnc4[nH]c(CN5CCOCC5)cc34)cc12 [Example 262] .
2

Jot down IC50 (CHUK (IKK alpha) (Homo sapiens)) of CN1CCN(C(=O)c2cc3c(-c4ccc5[nH]nc(N)c5c4)ccnc3[nH]2)CC1 [Example 243] .
13

Jot down IC50 (CHUK (IKK alpha) (Homo sapiens)) of CN1CCCN(Cc2cc3c(-c4ccc5[nH]nc(N)c5c4)ccnc3[nH]2)CC1 [Example 266] .
11

Jot down IC50 (CHUK (IKK alpha) (Homo sapiens)) of Nc1n[nH]c2ccc(-c3ccnc4[nH]c(C5CCOCC5)cc34)cc12 [Example 228] .
1

FYI, the data here is from patent US20250304576A1.
